Overview of recorded Kd for various binders
- MEASURED ON: T1, porcine epidemic diarrhea virus S protein (PEDV-S1) (porcine epidemic diarrhea virus)
- T1 chain: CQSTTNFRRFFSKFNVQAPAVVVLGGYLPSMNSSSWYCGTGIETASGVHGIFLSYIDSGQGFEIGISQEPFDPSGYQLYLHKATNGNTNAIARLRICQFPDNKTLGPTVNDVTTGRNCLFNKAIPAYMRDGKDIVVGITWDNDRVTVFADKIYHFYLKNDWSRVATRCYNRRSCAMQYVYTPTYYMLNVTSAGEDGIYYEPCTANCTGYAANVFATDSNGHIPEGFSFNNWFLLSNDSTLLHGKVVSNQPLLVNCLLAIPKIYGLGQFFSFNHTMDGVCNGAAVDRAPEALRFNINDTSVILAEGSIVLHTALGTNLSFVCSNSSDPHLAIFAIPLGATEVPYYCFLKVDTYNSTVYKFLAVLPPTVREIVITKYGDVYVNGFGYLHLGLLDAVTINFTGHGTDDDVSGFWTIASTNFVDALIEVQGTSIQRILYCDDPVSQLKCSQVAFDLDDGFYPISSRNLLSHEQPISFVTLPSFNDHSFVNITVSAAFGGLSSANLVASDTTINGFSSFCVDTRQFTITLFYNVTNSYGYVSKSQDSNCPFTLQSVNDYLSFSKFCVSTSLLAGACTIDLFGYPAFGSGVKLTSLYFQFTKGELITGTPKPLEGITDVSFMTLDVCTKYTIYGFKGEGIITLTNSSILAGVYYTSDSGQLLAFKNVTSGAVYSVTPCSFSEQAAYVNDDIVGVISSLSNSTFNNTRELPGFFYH
- ASSAY COMMENT: SPR
- MEASUREMENT PARAMETERS: both partners purified

Below, 3 binders whose answers are already recorded.
FWKEAK [peptide 110616]
772 nM
FWKSKR [peptide 110766]
216 nM
FWKQNKFLFWKQNKCL [peptide 110490]
1500 nM

Now turn to the next binder.
GET /values?readout=Kd&item= WHFNRP [peptide 115042]
6520 nM
